The following are reported IC50 results, target or system Cytochrome P450 2D6 (Homo sapiens, UniProt P10635).

{"smilesCode": "c1cnc2c(Nc3ccc4cnccc4c3)n[nH]c2c1", "IC50": "3.98 µM"}
{"smilesCode": "FC(F)c1nccc2cc(Nc3n[nH]c4cccnc34)ccc12", "IC50": "> 30 µM"}

* * *

targetOrTestSystem: Metabotropic glutamate receptor 4 (Homo sapiens)
procedureSummary: Positive allosteric modulator activity at human mGlu4 receptor/Gqi5 in presence of EC20 glutamate by calcium mobilization assay
EC50 class ranges: group 1 (below 0.07 µM), group 2 (0.07 µM to below 0.7 µM), group 3 (0.7 µM or more)

{"smilesCode": "c1ccc(CNc2nccc3cc(Nc4n[nH]c5cccnc45)ccc23)cc1", "classification": "group 3"}
{"smilesCode": "O=c1c2ccc(Nc3n[nH]c4cccnc34)cc2ccn1C1CCCC1", "classification": "group 3"}
{"smilesCode": "c1cnc2c(Nc3ccc4ncncc4c3)n[nH]c2c1", "classification": "group 3"}
{"smilesCode": "Cc1cc(C)n(-c2nccc3cc(Nc4n[nH]c5cccnc45)ccc23)n1", "classification": "group 3"}
{"smilesCode": "c1cnc2c(Nc3ccc4c(-n5cccn5)nccc4c3)n[nH]c2c1", "classification": "group 1"}
{"smilesCode": "FC(F)(F)c1nccc2cc(Nc3n[nH]c4ncccc34)ccc12", "classification": "group 1"}
{"smilesCode": "Cn1nc(C(F)(F)F)cc1-c1nccc2cc(Nc3n[nH]c4cccnc34)ccc12", "classification": "group 2"}
{"smilesCode": "c1cnc2c(Nc3ccc4nccnc4c3)n[nH]c2c1", "classification": "group 3"}
{"smilesCode": "c1cnc2c(Nc3ccc4cnccc4n3)n[nH]c2c1", "classification": "group 3"}
{"smilesCode": "FC1(F)CCN(c2nccc3cc(Nc4n[nH]c5cccnc45)ccc23)C1", "classification": "group 2"}
{"smilesCode": "CCc1nccc2cc(Nc3n[nH]c4cccnc34)ccc12", "classification": "group 1"}
{"smilesCode": "COCCNc1nccc2cc(Nc3n[nH]c4cccnc34)ccc12", "classification": "group 2"}

* * *

Entries annotated with measured half-life
procedureSummary: Half life in rat
Type: ADME
reportedConditions: in vivo

{"smilesCode": "FC(F)(F)c1nccc2cc(Nc3n[nH]c4cccnc34)ccc12", "half-life": "< 1 h"}
{"smilesCode": "FC(F)(F)c1nccc2cc(Nc3n[nH]c4nccnc34)ccc12", "half-life": "< 1 h"}

* * *

targetOrTestSystem: Metabotropic glutamate receptor 4 (Homo sapiens, UniProt Q14833)
Sequence (Q14833 whole entry): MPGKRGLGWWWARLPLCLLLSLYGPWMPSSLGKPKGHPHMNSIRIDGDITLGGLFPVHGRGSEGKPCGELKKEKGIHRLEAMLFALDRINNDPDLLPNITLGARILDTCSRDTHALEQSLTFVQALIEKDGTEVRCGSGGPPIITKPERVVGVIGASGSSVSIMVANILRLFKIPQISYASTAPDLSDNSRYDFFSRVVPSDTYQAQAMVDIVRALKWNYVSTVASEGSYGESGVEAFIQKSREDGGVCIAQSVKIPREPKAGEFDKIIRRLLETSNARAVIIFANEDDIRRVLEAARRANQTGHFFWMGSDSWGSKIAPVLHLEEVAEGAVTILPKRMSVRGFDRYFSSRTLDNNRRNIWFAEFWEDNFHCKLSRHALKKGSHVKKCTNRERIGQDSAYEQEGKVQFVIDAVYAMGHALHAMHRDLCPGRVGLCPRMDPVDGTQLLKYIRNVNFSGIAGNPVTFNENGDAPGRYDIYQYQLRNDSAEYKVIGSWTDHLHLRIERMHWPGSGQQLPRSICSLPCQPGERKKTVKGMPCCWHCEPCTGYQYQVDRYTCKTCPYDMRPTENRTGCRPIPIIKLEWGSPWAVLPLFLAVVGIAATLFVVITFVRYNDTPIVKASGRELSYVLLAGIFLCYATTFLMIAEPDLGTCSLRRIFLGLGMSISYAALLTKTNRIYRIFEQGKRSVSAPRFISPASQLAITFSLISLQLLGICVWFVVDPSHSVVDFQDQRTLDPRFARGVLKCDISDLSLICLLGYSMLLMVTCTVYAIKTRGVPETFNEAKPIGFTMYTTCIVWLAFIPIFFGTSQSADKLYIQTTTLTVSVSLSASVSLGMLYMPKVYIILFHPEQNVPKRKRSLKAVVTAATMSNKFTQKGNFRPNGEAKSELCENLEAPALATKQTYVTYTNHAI
procedureSummary: Positive allosteric modulator activity at human mGlu4 receptor/Gqi5 assessed as maximum activity at 30 uM by calcium mobilization assay relative to glutamic acid
Type: functional
reportedConditions: filed as positive allosteric modulator
Kind request: treat 80% as inclusive, so Activity at 80% or higher is class 1, anything lower is class 0.

{"compound": "c1cnc2ccc(Nc3n[nH]c4cccnc34)cc2c1", "targetOrTestSystem": "Metabotropic glutamate receptor 4 (Homo sapiens, UniProt Q14833)", "classification": "class 0"}
{"compound": "Cn1nc(C(F)(F)F)cc1-c1nccc2cc(Nc3n[nH]c4cccnc34)ccc12", "targetOrTestSystem": "Metabotropic glutamate receptor 4 (Homo sapiens, UniProt Q14833)", "classification": "class 1"}
{"compound": "Cc1cc(C)n(-c2nccc3cc(Nc4n[nH]c5cccnc45)ccc23)n1", "targetOrTestSystem": "Metabotropic glutamate receptor 4 (Homo sapiens, UniProt Q14833)", "classification": "class 0"}
{"compound": "Cc1ccn(-c2nccc3cc(Nc4n[nH]c5cccnc45)ccc23)n1", "targetOrTestSystem": "Metabotropic glutamate receptor 4 (Homo sapiens, UniProt Q14833)", "classification": "class 1"}
{"compound": "FC1(F)CCN(c2nccc3cc(Nc4n[nH]c5cccnc45)ccc23)C1", "targetOrTestSystem": "Metabotropic glutamate receptor 4 (Homo sapiens, UniProt Q14833)", "classification": "class 0"}
{"compound": "CN1CCN(c2nccc3cc(Nc4n[nH]c5cccnc45)ccc23)CC1", "targetOrTestSystem": "Metabotropic glutamate receptor 4 (Homo sapiens, UniProt Q14833)", "classification": "class 0"}
{"compound": "CCc1nccc2cc(Nc3n[nH]c4cccnc34)ccc12", "targetOrTestSystem": "Metabotropic glutamate receptor 4 (Homo sapiens, UniProt Q14833)", "classification": "class 0"}
{"compound": "CCN(CC)c1nccc2cc(Nc3n[nH]c4cccnc34)ccc12", "targetOrTestSystem": "Metabotropic glutamate receptor 4 (Homo sapiens, UniProt Q14833)", "classification": "class 1"}
{"compound": "FC(F)(F)c1nccc2cc(Nc3n[nH]c4cccnc34)ccc12", "targetOrTestSystem": "Metabotropic glutamate receptor 4 (Homo sapiens, UniProt Q14833)", "classification": "class 0"}
{"compound": "O=c1[nH]ccc2cc(Nc3n[nH]c4cccnc34)ccc12", "targetOrTestSystem": "Metabotropic glutamate receptor 4 (Homo sapiens, UniProt Q14833)", "classification": "class 0"}
{"compound": "FC(F)(F)C1CCCCN1c1nccc2cc(Nc3n[nH]c4cccnc34)ccc12 (stereo not drawn)", "targetOrTestSystem": "Metabotropic glutamate receptor 4 (Homo sapiens, UniProt Q14833)", "classification": "class 0"}
{"compound": "c1cnc2c(Nc3ccc4c(N5CCCCC5)nccc4c3)n[nH]c2c1", "targetOrTestSystem": "Metabotropic glutamate receptor 4 (Homo sapiens, UniProt Q14833)", "classification": "class 0"}
{"compound": "FC(F)c1nccc2cc(Nc3n[nH]c4cccnc34)ccc12", "targetOrTestSystem": "Metabotropic glutamate receptor 4 (Homo sapiens, UniProt Q14833)", "classification": "class 0"}
{"compound": "O=c1c2ccc(Nc3n[nH]c4cccnc34)cc2ccn1CC1CCC1", "targetOrTestSystem": "Metabotropic glutamate receptor 4 (Homo sapiens, UniProt Q14833)", "classification": "class 0"}
{"compound": "CC(c1nccc2cc(Nc3n[nH]c4cccnc34)ccc12)C(F)(F)F (stereo not drawn)", "targetOrTestSystem": "Metabotropic glutamate receptor 4 (Homo sapiens, UniProt Q14833)", "classification": "class 1"}
{"compound": "c1cnc2c(Nc3ccc4c(N5CCCC5)nccc4c3)n[nH]c2c1", "targetOrTestSystem": "Metabotropic glutamate receptor 4 (Homo sapiens, UniProt Q14833)", "classification": "class 0"}
